B1: HSP90AB1 (parent)
chain: QVANSAFVERVRKRGFEVVYMTEP

Variants of: B1
Assay: protein stability index of a GFP-peptide fusion (GPS, HEK-293T) (PSI 1-6); higher = more stable;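 further: lentivirally expressed fusions sorted by FACS into six bins by GFP to DsRed ratio, PSI derived from sequencing read proportions per bin multiplied by bin number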
Details: c terminus: a fixed tail appended
Returns 1 (yes) if the recorded protein stability index is greater than or equal to 2, and 0 (no) otherwise.

[[record]]
residue_change = "F7Y"
qualitative_label = "1 (yes)"


Prompt: Hello, I need to know if V19P has measured protein stability index not below 2. Thanks!
Response: 1 (yes)

Prompt: Hello, I need to know if G15V has measured protein stability index not below 2. Thanks!
Response: 1 (yes)

Prompt: Hello, I need to know if R10T has measured protein stability index not below 2. Thanks!
Response: 1 (yes)

Prompt: Hello, I need to know if F7T has measured protein stability index not below 2. Thanks!
Response: 1 (yes)

Prompt: Hello, I need to know if A6F has measured protein stability index not below 2. Thanks!
Response: 0 (no)

Taken from the supplement of paper PMC10567573.
